Kindly state cytotoxicity at 10 µM for each of the entries shown.
Assay: Toxicity liver stage against HepG2, at 10uM
Type: cell-based
Design: test concentration 10 uM, cell line HepG2-A16-CD81EGFP
Conditions: human, HepG2-A16-CD81EGFP cells; read-out: INHIBITION
// units = %; emit number, no label

In: What measured cytotoxicity at 10 µM goes with `COc1ccccc1CN1CC[C@H]2C[C@@H](C(=O)N3CCCC3)O[C@H]2C1` ?
Out: 7.28

In: Quick check: cytotoxicity at 10 µM of `Cc1noc(C)c1C(=O)N1C[C@@H]2CCCO[C@@H]2[C@H](N(C)C)C1` ?
Out: 9.85

In: So what's the measured cytotoxicity at 10 µM for this one? `CC(=O)Oc1ccnc(C(F)(F)F)c1C(C)=O`
Out: -11.4

In: Name the recorded cytotoxicity at 10 µM for CC1N(CC2CC2)C(=O)COC12CCN(C(=O)c1ccno1)CC2 (stereo not drawn) .
Out: 0.104

In: I have this molecule here, `CCN(Cc1nc(COC)no1)Cc1cccnc1NC(=O)C(C)(C)C` , and I need its recorded cytotoxicity at 10 µM.
Out: -47.9

In: Quick one: cytotoxicity at 10 µM for `Cc1cccc(C(=O)N2CCCN(Cc3cscn3)CC2)c1` ?
Out: -18.1

In: Returns the measured cytotoxicity at 10 µM for the input molecule. Input: `CNS(=O)(=O)c1ccc(CNC(=O)NCc2cc[nH]n2)cc1`
Out: 1.91

In: Consider the molecule shown here: `Cc1ccc(C(=O)N2CC[C@H]3[C@@H]2CCC(=O)N3c2cccnc2)o1` What is its recorded cytotoxicity at 10 µM?
Out: -106

In: Data request, read-out cytotoxicity at 10 µM, for `Cc1noc(C)c1C(=O)N1CCCN(Cc2nccn2C(C)C)CC1`
Out: -3.92

In: Recorded cytotoxicity at 10 µM for `COCCN1CCN(Cc2cnc(C(C)C)nc2)CC1` , please?
Out: 10.6

In: Reported cytotoxicity at 10 µM, molecule `COC(=O)c1cccn1C1CCN(CCN2C(=O)CCC2=O)CC1` : ____
Out: 0.207

In: Quick one: cytotoxicity at 10 µM of `CN(C)C(=O)CCC(=O)NCc1cccnc1-n1cnc2ccccc21` ?
Out: -3.97

In: Item `CO[C@H]1CN(CC2CCOCC2)[C@@H]2CCCO[C@H]12` has what recorded cytotoxicity at 10 µM?
Out: -100

In: Name the reported cytotoxicity at 10 µM value associated with the molecule `CCOC(=O)[C@]12CCCN(Cc3cccs3)C[C@H]1CN(C(C)C)C2`
Out: 12.2

In: Param item = `Cc1cc(S(=O)(=O)N2CCCc3cc(F)c(F)cc32)sc1C(=O)O` ; retrieve measured cytotoxicity at 10 µM.
Out: -11.9

In: For Cn1cc(CN2CCCC(Cn3cc(CCCO)nn3)C2)cn1 (stereo not drawn) , what is its reported cytotoxicity at 10 µM?
Out: -3.51

In: Dear colleague, I am looking for the recorded cytotoxicity at 10 µM of the following molecule: CCOC(=O)NC(CNC(=O)c1cccc(C)n1)CC(C)C (stereo not drawn)
Out: 6.17

In: Request the reported cytotoxicity at 10 µM associated with `CO[C@@H]1CCC[C@@H](NC(=O)C(C)(C)c2cccc(F)c2)[C@H]1O`
Out: -1.09

In: Give the measured cytotoxicity at 10 µM of `CC(C)(C)n1cc(C(=O)O)c(-c2ccc(F)cc2F)n1` .
Out: 6.92

In: Please look up its cytotoxicity at 10 µM: `N#Cc1cccc(C(=O)N2CC[C@H]3[C@H]2CCN3CC2CCOCC2)c1`
Out: -77

In: Please look up its cytotoxicity at 10 µM: `Cc1ccc2c(c1)CCC21CCN(C(=O)CO)CC1`
Out: -8.13

In: What value of cytotoxicity at 10 µM has been recorded for this entry: `O=C(c1ccccc1Cl)N1CC[C@H](O)[C@@H](N2CCOCC2)CC1`
Out: -4.91

In: Requested field: cytotoxicity at 10 µM. Item: `Cn1ccc(CN2CCC(OCCc3ccccc3)CC2)cc1=O`
Out: -4.43
